Here the recorded IC50 is given for each entry.
# target or test system: UniProt:Q00961
# Sequence (Q00961 whole entry): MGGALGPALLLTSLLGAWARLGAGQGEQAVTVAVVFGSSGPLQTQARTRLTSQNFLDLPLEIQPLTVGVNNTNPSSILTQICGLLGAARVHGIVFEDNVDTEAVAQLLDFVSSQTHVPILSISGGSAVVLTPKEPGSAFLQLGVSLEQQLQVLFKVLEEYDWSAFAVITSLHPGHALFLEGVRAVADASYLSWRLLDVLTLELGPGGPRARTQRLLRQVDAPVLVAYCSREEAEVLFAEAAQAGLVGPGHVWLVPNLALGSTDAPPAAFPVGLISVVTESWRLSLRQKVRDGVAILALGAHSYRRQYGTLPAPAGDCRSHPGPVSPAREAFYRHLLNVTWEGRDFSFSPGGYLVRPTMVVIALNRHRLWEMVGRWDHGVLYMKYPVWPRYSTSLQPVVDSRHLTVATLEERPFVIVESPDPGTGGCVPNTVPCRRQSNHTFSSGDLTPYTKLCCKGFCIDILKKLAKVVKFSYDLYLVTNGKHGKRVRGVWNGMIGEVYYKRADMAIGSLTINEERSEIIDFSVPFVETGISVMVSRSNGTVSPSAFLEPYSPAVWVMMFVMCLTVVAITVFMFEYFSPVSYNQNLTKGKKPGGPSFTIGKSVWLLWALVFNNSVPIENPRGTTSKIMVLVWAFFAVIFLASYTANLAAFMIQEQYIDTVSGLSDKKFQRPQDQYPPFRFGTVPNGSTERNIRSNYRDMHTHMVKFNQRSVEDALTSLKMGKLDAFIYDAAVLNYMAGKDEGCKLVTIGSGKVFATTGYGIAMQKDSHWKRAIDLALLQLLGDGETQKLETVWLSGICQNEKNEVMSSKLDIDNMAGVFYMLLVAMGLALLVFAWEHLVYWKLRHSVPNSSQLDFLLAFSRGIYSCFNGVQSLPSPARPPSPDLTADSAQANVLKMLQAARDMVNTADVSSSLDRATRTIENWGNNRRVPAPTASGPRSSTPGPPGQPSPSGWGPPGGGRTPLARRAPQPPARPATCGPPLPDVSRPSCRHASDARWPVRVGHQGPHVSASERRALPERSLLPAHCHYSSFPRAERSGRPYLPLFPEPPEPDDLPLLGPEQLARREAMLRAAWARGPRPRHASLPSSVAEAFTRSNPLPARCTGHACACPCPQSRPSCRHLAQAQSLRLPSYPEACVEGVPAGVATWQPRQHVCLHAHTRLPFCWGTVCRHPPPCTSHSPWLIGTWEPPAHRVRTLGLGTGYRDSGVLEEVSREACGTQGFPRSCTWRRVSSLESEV
# test summary: Concentration required to inhibit of N-methyl-D-aspartic acid (NMDA) receptor produced by oocytes
Remember to put the unit after the number in your answer.

Solved entries (count: 2):
Request the reported IC50 associated with CCC(N)[C@@H]1C[C@@]1(C(=O)N(CC)CC)c1ccccc1 (stereo in doubt; 2b)
2200 nM

Then what about the compound CCC(N)[C@H]1C[C@]1(C(=O)N(CC)CC)c1ccccc1 (stereo in doubt; form 1) ?
39000 nM

Next:
Request the reported IC50 associated with CCN(CC)C(=O)[C@@]1(c2ccccc2)C[C@H]1C(C)N (stereo in doubt; 2a)
2300 nM

---

# Organism: Rattus norvegicus
# test summary: Ratio of 5 HT inhibition to NMDA receptor binding
Here the recorded Selectivity index is given for each entry.

Request the reported Selectivity index associated with CCCC(N)[C@@H]1C[C@@]1(C(=O)N(CC)CC)c1ccccc1 (some centres undefined)
37

Next:
Request the reported Selectivity index associated with CCN(CC)C(=O)[C@@]1(c2ccccc2)C[C@H]1C(N)c1ccccc1 (some centres undefined)
> 5.9

Then what about the molecule C=CC(N)[C@@H]1C[C@@]1(C(=O)N(CC)CC)c1ccccc1 (some centres undefined) ?
0.14

Then what about the molecule CCN(CC)C(=O)[C@@]1(c2ccccc2)C[C@H]1C(N)CC(C)C (some centres undefined) ?
> 24

---

# target or test system: Sodium-dependent serotonin transporter (Rattus norvegicus, UniProt P31652)
# Sequence (P31652 whole entry): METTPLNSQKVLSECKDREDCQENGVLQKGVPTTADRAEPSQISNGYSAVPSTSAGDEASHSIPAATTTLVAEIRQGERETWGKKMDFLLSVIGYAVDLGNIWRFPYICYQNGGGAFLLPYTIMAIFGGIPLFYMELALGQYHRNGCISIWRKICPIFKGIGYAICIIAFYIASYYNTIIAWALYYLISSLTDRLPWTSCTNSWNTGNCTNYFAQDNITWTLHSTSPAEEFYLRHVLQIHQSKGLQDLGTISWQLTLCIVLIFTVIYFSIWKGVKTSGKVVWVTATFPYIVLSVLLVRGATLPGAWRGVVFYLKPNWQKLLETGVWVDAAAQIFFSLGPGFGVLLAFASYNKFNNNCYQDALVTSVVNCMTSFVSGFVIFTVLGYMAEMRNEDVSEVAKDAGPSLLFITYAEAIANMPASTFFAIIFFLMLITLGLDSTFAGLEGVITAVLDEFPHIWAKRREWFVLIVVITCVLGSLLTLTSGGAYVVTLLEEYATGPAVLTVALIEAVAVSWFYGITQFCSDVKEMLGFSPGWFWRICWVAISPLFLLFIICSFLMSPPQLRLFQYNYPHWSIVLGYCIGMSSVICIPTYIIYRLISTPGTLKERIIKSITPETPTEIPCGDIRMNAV
pKi: −log10 of the molar value.
metric name: pKi

Solved entries (count: 2):
Request the reported pKi associated with CCN(CC)C(=O)[C@@]1(c2ccccc2)C[C@H]1C(N)CC(C)C (stereo partly drawn)
< 4.00

Then what about the molecule CCCC(N)[C@@H]1C[C@@]1(C(=O)N(CC)CC)c1ccccc1 (stereo partly drawn) ?
4.43

Next:
Request the reported pKi associated with CCC(N)[C@@H]1C[C@@]1(C(=O)N(CC)CC)c1ccccc1 (stereo in doubt; 3b)
< 4.00

---

Below are pKi values measured for Sodium-dependent serotonin transporter (Rattus norvegicus).
FYI, pKi means -log10 of a concentration in mol per litre.

Request the reported pKi associated with CCC(N)[C@@H]1C[C@@]1(C(=O)N(CC)CC)c1ccccc1 (stereo in doubt; 2b)
4.62

With those in mind, consider the next compound.
Request the reported pKi associated with CCN(CC)C(=O)[C@@]1(c2ccccc2)C[C@H]1CN
8.07

---

Here the recorded pIC50 is given for each entry.
# target or test system: Glutamate NMDA receptor
# test summary: Inhibition of [3H]-MK-801 binding to NMDA receptor from rat cerebral cortical synaptic membrane
FYI, pIC50 means -log10 of a concentration in mol per litre.

Solved entries (count: 5):
What measured pIC50 is associated with CCC(N)[C@@H]1C[C@@]1(C(=O)N(CC)CC)c1ccccc1 (stereo in doubt; 2b) on Glutamate NMDA receptor?
6.70

Then what about the compound c1ccc(C2(N3CCCCC3)CCCCC2)cc1 ?
8.01

Then what about the compound CCCC(N)[C@@H]1C[C@@]1(C(=O)N(CC)CC)c1ccccc1 (stereo not given in full) ?
6.00

Then what about the compound CNC1(c2ccccc2Cl)CCCCC1=O (stereo not given) ?
6.21

Then what about the compound C=CC(N)[C@@H]1C[C@@]1(C(=O)N(CC)CC)c1ccccc1 (stereo not given in full) ?
6.80

Next:
What measured pIC50 is associated with CCN(CC)C(=O)[C@@]1(c2ccccc2)C[C@H]1C(C)N (stereo in doubt; 2a) on Glutamate NMDA receptor?
6.46

Then what about the compound CCN(CC)C(=O)[C@]1(c2ccccc2)C[C@@H]1C(C)N (stereo in doubt; form 2) ?
4.72

Then what about the compound CCN(CC)C(=O)[C@@]1(c2ccccc2)C[C@H]1C(C)N (stereo in doubt; 3a) ?
5.19

Then what about the compound CCN(CC)C(=O)[C@@]1(c2ccccc2)C[C@H]1C(N)CC(C)C (stereo not given in full) ?
5.38

Then what about the compound CCN(CC)C(=O)[C@@]1(c2ccccc2)C[C@H]1C(N)c1ccccc1 (stereo not given in full) ?
4.77
